All figures here come from patent US5985856A.

assay: pKa determination by 31P NMR method; conditions: 10% d2o in h2o
Value kind: pKa

Consider the compound shown here: C[N+]1(COP(=O)([O-])O)CCN(C2=Nc3ccccc3Oc3ccc(Cl)cc32)CC1 [loxapine prodrug] What is its recorded pKa? 4.7

----------
assay: physchem; details: 10% d2o in h2o
Value kind: pKa
Could you respond with only the numeric value?

Given the entry O=P([O-])(O)OC[N+]12CCC(CC1)CC2 [quinuclidine prodrug] , report its measured pKa. 4.9

----------
test: physchem; assay type: physicochemical; details: 0.05 m hcl/ch3coona buffer, pH 3
Value kind: solubility at 24 h (mg/mL)
Write the value in mg/mL as a bare number.

Query (molecule): C[N+]1(COP(=O)([O-])O)CCN(C2=Nc3ccccc3Oc3ccc(Cl)cc32)CC1 [loxapine prodrug] ; field requested: solubility at 24 h 290

----------
test: Preliminary visual solubility estimates of synthesized prodrugs; assay type: physicochemical; conditions: preliminary visual estimate, pH 7.4
solubility reference

INSERT INTO measurements (compound, value_kind, assay_result) VALUES
  ('C[N+]1(COP(=O)([O-])O)CCN(C2=Nc3ccccc3Oc3ccc(Cl)cc32)CC1 [loxapine prodrug]', 'solubility', '> 600000 µg/mL'),
  ('CCCCc1oc2ccccc2c1C(=O)c1cc(I)c(OCC[N+](CC)(CC)COP(=O)([O-])O)c(I)c1 [amiodarone prodrug]', 'solubility', '> 5000 µg/mL');

Now turn to the next compound.
I would be grateful if you could share the reported solubility for O=P([O-])(O)OC[N+]1(C/C=C/c2ccccc2)CCN(C(c2ccccc2)c2ccccc2)CC1 [cinnarizine prodrug] . > 5000 µg/mL

----------
assay: in vivo; details: dog, iv
Value kind: Vd (L/kg)
Numeric answer only, unit L/kg assumed.

Item under review: C(=C\c1ccccc1)/CN1CCN(C(c2ccccc2)c2ccccc2)CC1 [Cinnarizine] . Reported Vd? 21.7

----------
experiment: in vivo; details: dog, iv
Value kind: half-life (h)
A number alone suffices; assume h.

// returns reported half-life for input C(=C\c1ccccc1)/CN1CCN(C(c2ccccc2)c2ccccc2)CC1 [Cinnarizine] 12

----------
assay: physchem; type: physicochemical; details: 0.05 m nah2po4/na2hpo4 buffer, pH 7.4
Value kind: solubility at 24 h (mg/mL)
Provide the reading as a plain figure in mg/mL.

May I ask what solubility at 24 h has been recorded for C[N+]1(COP(=O)([O-])O)CCN(C2=Nc3ccccc3Oc3ccc(Cl)cc32)CC1 [loxapine prodrug] ? 648

----------
assay: in vivo; details: dog, iv
Value kind: clearance
Form entry: enter the amount, then its unit.

Quick one: clearance for C(=C\c1ccccc1)/CN1CCN(C(c2ccccc2)c2ccccc2)CC1 ? 19.5 mL/min/kg
